Biological target: His-Tau40P301L Tau (UniProt P10636-8 1-441)
Sequence (P10636 other isoform, or with tags, fused parts or gaps limits assumed): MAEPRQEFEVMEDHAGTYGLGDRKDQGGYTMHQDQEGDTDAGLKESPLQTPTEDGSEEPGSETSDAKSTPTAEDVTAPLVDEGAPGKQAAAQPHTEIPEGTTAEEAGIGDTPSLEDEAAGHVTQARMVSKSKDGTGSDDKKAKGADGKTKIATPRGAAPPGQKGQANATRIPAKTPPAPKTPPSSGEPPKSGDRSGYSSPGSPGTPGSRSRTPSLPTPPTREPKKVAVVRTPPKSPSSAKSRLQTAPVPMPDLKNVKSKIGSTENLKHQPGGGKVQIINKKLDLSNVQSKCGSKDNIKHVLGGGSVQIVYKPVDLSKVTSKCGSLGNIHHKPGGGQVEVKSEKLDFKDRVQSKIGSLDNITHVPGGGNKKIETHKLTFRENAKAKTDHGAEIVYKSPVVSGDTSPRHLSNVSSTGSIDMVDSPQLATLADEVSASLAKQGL
Assay: cell-based or functional assay
QUANTITY: IC50 (µM), Tau40 assay (ThT)
Respond numerically; units are µM and should not be typed.

Exam item: Dear colleague, I am looking for the recorded IC50 (µM), Tau40 assay (ThT) of the following binder: LKIHIRHW
Marked response: 3.79

Exam item: Then WRAWIRYW ?
Marked response: 2.59

Exam item: Please give the result for RIWLWYR too.
Marked response: 2.73

Exam item: Lookup RIRAWIW
Marked response: 14.6

Exam item: Now try WRIRLYWW .
Marked response: 1.15

Exam item: Now consider WRIWIRRW .
Marked response: 1.68

Exam item: Next up: WRIRIAW
Marked response: 4.72

Exam item: Same thing, different binder: WRIWIRLW
Marked response: 7.32

Exam item: Please give the result for WRLRIHW too.
Marked response: 1.82

// data source = patent US20230137562A1
